# assayed_target: Dopaminergic D2S (Homo sapiens)
# Sequence (P14416 1-414 isoform P14416-2): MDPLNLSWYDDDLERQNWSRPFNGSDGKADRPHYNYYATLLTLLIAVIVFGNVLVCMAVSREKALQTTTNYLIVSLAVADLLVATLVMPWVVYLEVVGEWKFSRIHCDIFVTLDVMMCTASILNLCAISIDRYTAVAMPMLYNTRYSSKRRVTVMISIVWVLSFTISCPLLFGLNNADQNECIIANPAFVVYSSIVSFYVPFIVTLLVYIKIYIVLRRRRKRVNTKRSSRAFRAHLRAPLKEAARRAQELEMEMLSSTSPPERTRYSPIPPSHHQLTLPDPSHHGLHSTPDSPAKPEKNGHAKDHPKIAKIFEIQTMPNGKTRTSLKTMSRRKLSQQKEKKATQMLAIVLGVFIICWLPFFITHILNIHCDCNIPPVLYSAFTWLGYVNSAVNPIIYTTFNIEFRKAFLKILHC
# assay: competitive radioligand binding, Dopaminergic D2S
# settings: compound concentration of 1 μM; read-out: radio-labelled ligand displacement, Dopaminergic D2S
Structures can show the parent of a compound that is named as a salt.
attribute_measured: inhibition at 1 µM (%)
Give just the numeric value; % need not be written.

Solved entries (count: 4):
compound	inhibition at 1 µM (%)
Cc1cc2c(s1)c1c(n2CCc2ccccc2)CCN(C)C1.Cl [2.6(1)•HCl]	73
Cc1ccc(CCCn2c3c(c4scc(Cl)c42)CN(C)CC3)cn1 [2.12(5)•HCl]	89
Cc1cc2c3c(n(Cc4ccccc4)c2s1)CC1CCC3N1C (centres unmarked) [3.13(1)•HCl]	25
Cc1cc2c(s1)c1c(n2-c2cccc(F)c2)CCN(C)C1 [2.4(3)•HCl]	3

Now examine the next entry.
Problem: I have this compound here, Cc1cc2c3c(n(CCc4ccccc4)c2s1)CCN(C)C3.Cl [3.6(1)•HCl] , and I need its recorded inhibition at 1 µM.
Result: 86

* * *

# System: Adrenergic α1A
# assay: competitive radioligand binding, Adrenergic α1A
# settings: compound concentration of 1 μM
Quick rule for you: radio-labelled ligand displacement, Adrenergic α1A under 80% gets MET, anything else gets NOT MET.

molecule	assigned_label
Cc1cc2c(s1)c1c(n2Cc2ccccc2)CCN(C)C1.Cl [2.5(1)•HCl]	MET

Problem: Determine whether this molecule shows radio-labelled ligand displacement, Adrenergic α1A lower than 80% (ties excluded): Cc1cc2c3c(n(Cc4ccccc4)c2s1)CCN(C)C3.Cl [3.5(1)•HCl]
Result: MET

* * *

Entries and their inhibition at 1 µM
# assayed_target: Serotoninergic 5-HT1A (Homo sapiens)
# Sequence (P08908 whole entry): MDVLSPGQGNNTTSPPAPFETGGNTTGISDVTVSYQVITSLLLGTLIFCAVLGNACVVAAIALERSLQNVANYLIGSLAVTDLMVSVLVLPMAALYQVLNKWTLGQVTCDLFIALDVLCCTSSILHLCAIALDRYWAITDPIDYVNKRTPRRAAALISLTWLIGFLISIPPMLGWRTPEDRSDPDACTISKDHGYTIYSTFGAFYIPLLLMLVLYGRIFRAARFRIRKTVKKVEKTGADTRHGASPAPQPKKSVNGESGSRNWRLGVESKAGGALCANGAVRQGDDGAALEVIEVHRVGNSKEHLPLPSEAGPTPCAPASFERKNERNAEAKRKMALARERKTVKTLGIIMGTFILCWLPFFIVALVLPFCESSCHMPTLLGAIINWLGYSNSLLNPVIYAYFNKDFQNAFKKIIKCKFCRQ
# assay: competitive radioligand binding, Serotoninergic 5-HT1A
# settings: compound concentration of 1 μM; read-out: radio-labelled ligand displacement, Serotoninergic 5-HT1A
Structures can show the parent of a compound that is named as a salt.
Could you give me the number in %? Just the number is fine.

Worked cases, inhibition at 1 µM given:
molecule	attribute_measured	observed_result
Cc1cc2c(s1)c1c(n2-c2cccc(F)c2)CCN(C)C1 [2.4(3)•HCl]	inhibition at 1 µM	3
CC1Cc2c(c3sc(Cl)cc3n2C#Cc2cccc(F)c2)C(C)N1C (stereo not shown) [2.10(3)•HCl]	inhibition at 1 µM	6

Problem: For Cc1cc2c(s1)c1c(n2CCc2ccccc2)CCN(C)C1.Cl [2.6(1)•HCl] , what is its reported inhibition at 1 µM?
Result: 16

Problem: # get_value(readout='inhibition at 1 µM', item= Cc1ccc(CCCn2c3c(c4scc(Cl)c42)CN(C)CC3)cn1 [2.12(5)•HCl] )
Result: 57

* * *

# assayed_target: UniProtKB P08913
# Sequence (P08913 1-465): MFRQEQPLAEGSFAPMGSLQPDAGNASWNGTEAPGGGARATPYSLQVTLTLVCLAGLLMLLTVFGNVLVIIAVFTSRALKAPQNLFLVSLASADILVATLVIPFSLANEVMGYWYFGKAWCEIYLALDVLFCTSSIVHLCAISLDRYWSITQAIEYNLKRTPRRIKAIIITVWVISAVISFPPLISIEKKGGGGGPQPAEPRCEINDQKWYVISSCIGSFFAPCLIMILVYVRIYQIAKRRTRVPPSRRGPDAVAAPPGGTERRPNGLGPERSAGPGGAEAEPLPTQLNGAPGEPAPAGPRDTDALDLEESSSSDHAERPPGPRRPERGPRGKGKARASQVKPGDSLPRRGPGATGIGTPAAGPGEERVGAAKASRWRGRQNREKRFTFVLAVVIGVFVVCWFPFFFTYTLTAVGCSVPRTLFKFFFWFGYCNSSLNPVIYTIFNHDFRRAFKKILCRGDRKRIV
# assay: competitive radioligand binding, Adrenergic α2A
# settings: read-out: radio-labelled ligand displacement, Adrenergic α2A
Where a name gives a salt, the structure may show the parent alone.
Think of 80% as a floor: if inhibition at 1 µM stands on it or above, it is satisfied; beneath it, not satisfied.

Field: example entries. Status: answers known.
compound	assigned_label
Cc1cc2c3c(n(Cc4ccccc4)c2s1)CC1CCC3N1C (centres unmarked) [3.13(1)•HCl]	not satisfied
Cc1cc2c3c(n(CCc4ccccc4)c2s1)CCN(C)C3.Cl [3.6(1)•HCl]	satisfied
Cc1cc2c3c(n(Cc4ccccc4)c2s1)CCN(C)C3.Cl [3.5(1)•HCl]	not satisfied

Next up:
Problem: Evaluate Cc1cc2c(s1)c1c(n2Cc2ccccc2)CCN(C)C1.Cl [2.5(1)•HCl] : inhibition at 1 µM at minimum 80%?
Result: not satisfied

* * *

# assayed_target: Dopaminergic D3 (Homo sapiens, UniProt P35462)
# Sequence (P35462 whole entry): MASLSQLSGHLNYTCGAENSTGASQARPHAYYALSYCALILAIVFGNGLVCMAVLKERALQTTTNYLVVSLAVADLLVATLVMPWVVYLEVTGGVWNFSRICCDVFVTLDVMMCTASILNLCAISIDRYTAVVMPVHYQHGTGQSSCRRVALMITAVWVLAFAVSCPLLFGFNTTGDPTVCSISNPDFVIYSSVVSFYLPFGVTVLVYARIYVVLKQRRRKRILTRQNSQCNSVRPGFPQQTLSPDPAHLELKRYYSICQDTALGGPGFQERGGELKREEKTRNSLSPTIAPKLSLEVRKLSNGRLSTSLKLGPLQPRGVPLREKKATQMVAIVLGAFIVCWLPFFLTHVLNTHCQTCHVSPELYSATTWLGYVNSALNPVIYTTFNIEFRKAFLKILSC
# assay: competitive radioligand binding, Dopaminergic D3
# settings: compound concentration of 1 μM; read-out: radio-labelled ligand displacement, Dopaminergic D3
Structures can show the parent of a compound that is named as a salt.
Each entry below carries its reported inhibition at 1 µM.
Hi, when you answer, please include the unit after the number. Thanks!

compound	observed_result
Cc1cc2c(s1)c1c(n2CCc2ccccc2)CCN(C)C1.Cl [2.6(1)•HCl]	62%

Problem: API: value(readout= inhibition at 1 µM, system= Dopaminergic D3 (Homo sapiens, UniProt P35462), query= Cc1cc2c3c(n(CCc4ccccc4)c2s1)CCN(C)C3.Cl [3.6(1)•HCl] )
Result: 73%

Problem: Item: Cc1cc2c3c(n(Cc4ccccc4)c2s1)CCN(C)C3.Cl [3.5(1)•HCl] Test system: Dopaminergic D3 (Homo sapiens, UniProt P35462) Read-out: inhibition at 1 µM Value: ?
Result: 19%

Problem: Write down the reported inhibition at 1 µM of Cc1cc2c(s1)c1c(n2-c2cccc(F)c2)CCN(C)C1 [2.4(3)•HCl] , test system: Dopaminergic D3 (Homo sapiens, UniProt P35462).
Result: 11%

Problem: Recorded inhibition at 1 µM for Cc1cc2c(s1)c1c(n2Cc2ccccc2)CCN(C)C1.Cl [2.5(1)•HCl] with Dopaminergic D3 (Homo sapiens, UniProt P35462), please?
Result: 16%

Problem: # value lookup — system Dopaminergic D3 (Homo sapiens, UniProt P35462), readout inhibition at 1 µM, item Cc1cc2c3c(n(Cc4ccccc4)c2s1)CC1CCC3N1C (stereo not drawn) [3.13(1)•HCl]
Result: 21%

Problem: Please provide the recorded inhibition at 1 µM for Cc1ccc(CCCn2c3c(c4scc(Cl)c42)CN(C)CC3)cn1 [2.12(5)•HCl] , tested on Dopaminergic D3 (Homo sapiens, UniProt P35462).
Result: 71%

Problem: Hello, I am looking for reported inhibition at 1 µM with Dopaminergic D3 (Homo sapiens, UniProt P35462) for CC1Cc2c(c3sc(Cl)cc3n2C#Cc2cccc(F)c2)C(C)N1C (stereo not drawn) [2.10(3)•HCl] . Could you help?
Result: 23%

Problem: Checklist item: inhibition at 1 µM tested on Dopaminergic D3 (Homo sapiens, UniProt P35462), entry Cc1ccc(Cn2c3c(c4sc(Cl)cc42)C(C)N(C)C(C)C3)cn1 (stereo not drawn) [2.5(4)•HCl] , value?
Result: 15%

* * *

# assayed_target: Adrenergic α1D (Homo sapiens, UniProt P25100)
# Sequence (P25100 whole entry): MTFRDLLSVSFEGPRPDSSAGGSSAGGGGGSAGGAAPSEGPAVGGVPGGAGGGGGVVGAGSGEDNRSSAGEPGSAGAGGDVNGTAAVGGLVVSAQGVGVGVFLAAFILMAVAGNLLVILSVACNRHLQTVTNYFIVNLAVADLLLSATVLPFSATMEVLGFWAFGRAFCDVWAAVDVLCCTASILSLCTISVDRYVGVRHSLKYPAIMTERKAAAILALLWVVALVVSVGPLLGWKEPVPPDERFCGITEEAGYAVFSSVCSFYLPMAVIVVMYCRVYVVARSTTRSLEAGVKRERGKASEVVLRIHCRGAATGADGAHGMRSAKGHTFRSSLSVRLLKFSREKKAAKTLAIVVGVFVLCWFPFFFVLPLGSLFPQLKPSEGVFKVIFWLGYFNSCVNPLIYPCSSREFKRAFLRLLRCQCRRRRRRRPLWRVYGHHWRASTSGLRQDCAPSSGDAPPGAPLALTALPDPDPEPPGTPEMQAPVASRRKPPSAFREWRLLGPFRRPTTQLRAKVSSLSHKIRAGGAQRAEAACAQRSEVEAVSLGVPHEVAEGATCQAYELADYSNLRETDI
# assay: competitive radioligand binding, Adrenergic α1D
# settings: compound concentration of 1 μM
Counter-ions that a name gives are not always drawn.
Overview of recorded radio-labelled ligand displacement, Adrenergic α1D for various compounds
Quick note: give the figure in %, leave out the unit.

Example entries begin here.
compound	result_units	observed_result
Cc1csc2c1c1c(n2CCCc2ccccc2)CCN(C)C1 [3.12(1)•HCl]	%	92
Cc1cc2c3c(n(CCc4ccc(Cl)cc4)c2s1)C(C)CN(C)C3 (stereo not drawn) [3.6(4)•HCl]	%	89
Cc1cc2c3c(n(CC(O)c4ccccc4)c2s1)CCN(C)C3.Cl (stereo not drawn) [3.7(1)•HCl]	%	86
Cc1ccc(CCCn2c3c(c4c(Cl)csc42)CN(C)CC3)cc1 [3.12(5)•HCl]	%	86
CN1CCc2c(c3cc(Cl)sc3n2CCCc2cccc(F)c2)C1 [3.12(6)•HCl]	%	83

Here is the next item to consider.
Problem: // lookup radio-labelled ligand displacement, Adrenergic α1D for Cc1ccc(C=CCn2c3c(c4cc(C)sc42)CN(C)CC3)cc1 [3.11(2)•HCl]
Result: 42

* * *

# inhibition at 1 µM per entry
# assayed_target: UniProtKB P14416
# assay: competitive radioligand binding, Dopaminergic D2S
# settings: compound concentration of 1 μM; read-out: radio-labelled ligand displacement, Dopaminergic D2S
Where a name gives a salt, the structure may show the parent alone.
Value expressed in %; do not type the unit.

compound	assayed_target	inhibition at 1 µM [%]
CC1Cc2c(c3sc(Cl)cc3n2C#Cc2cccc(F)c2)C(C)N1C (stereo not shown) [2.10(3)•HCl]	UniProtKB P14416	31

Problem: Which measured inhibition at 1 µM belongs to Cc1cc2c3c(n(Cc4ccccc4)c2s1)CCN(C)C3.Cl [3.5(1)•HCl] , tested on UniProtKB P14416?
Result: 23

Problem: Test system UniProtKB P14416; read-out inhibition at 1 µM; what value for Cc1cc2c(s1)c1c(n2Cc2ccccc2)CCN(C)C1.Cl [2.5(1)•HCl] ?
Result: -6

Problem: Record lookup: for UniProtKB P14416, what inhibition at 1 µM belongs to Cc1ccc(Cn2c3c(c4sc(Cl)cc42)C(C)N(C)C(C)C3)cn1 (stereo not shown) [2.5(4)•HCl] ?
Result: 17
